# Tested on: NCI-H226
# assay_overview: NCI tumour cell line growth inhibition, 48 h
Calls of active or inactive are those of the source. Rule as the data show it: active = GI50 up to about 1.1 µM and inactive = higher.
measured_metric: GI50

Lookup: Complete the entry with GI50 for O=C(Cc1ccccc1)NN1C(=O)C(Cl)C1c1ccc(Cl)cc1 (centres undefined)
Found: > 100 µM (inactive)

Lookup: Complete the entry with GI50 for `COc1ccc(C=O)c(NC(=O)C(C)C)c1`
Found: > 10 µM (inactive)

Lookup: Complete the entry with GI50 for `CC(C)OC(=O)c1cc(NC(=O)C(C)(C)C)c(F)cc1Cl`
Found: > 100 µM (inactive)

Lookup: Complete the entry with GI50 for `NC(=S)Nc1ccc(S(=O)(=O)Nc2ccc(S(N)(=O)=O)cc2)cc1`
Found: > 100 µM (inactive)

Lookup: Complete the entry with GI50 for `CN1C/C(=C\c2ccc(C(=O)O)cc2)C(=O)/C(=C/c2ccc(C(=O)O)cc2)C1`
Found: > 100 µM (inactive)

Lookup: Complete the entry with GI50 for C[C@@H]1CCC2[C@@H](C)[C@H](O[C@H]3O[C@@H]4O[C@@]5(C)CCC6[C@H](C)CCC([C@H]3C)[C@]64OO5)O[C@@H]3O[C@@]4(C)CCC1[C@@]23OO4 (some centres undefined)
Found: 2.11 µM (inactive)

Lookup: Complete the entry with GI50 for C=C1[C@@H]([C@@]2(C)C=CC(=O)C(C)(C)[C@@H]2CC(=O)OC)CC[C@@]2(C)[C@H](c3ccoc3)OC(=O)[C@H]3O[C@]132 [ANDIROBIN]
Found: > 100 µM (inactive)

Lookup: Complete the entry with GI50 for `CCOC(=O)/C=C/n1c2ccccc2c(=O)c2cc(OC)ccc21`
Found: > 100 µM (inactive)

Lookup: Complete the entry with GI50 for `CC1(C)OC(=O)C(C#N)=C1/C=C/c1coc2ccc(Cl)cc2c1=O`
Found: 29.4 µM (inactive)

----------
# Test system: MOLT-4
# assay_overview: NCI tumour cell line growth inhibition, 48 h
Active and inactive are the calls of the source. Rule as the data show it: active = GI50 up to about 1.1 µM and inactive = higher.
measured_metric: GI50

# example entries with known answers
INSERT INTO results (compound, study_system, readout_value) VALUES
  ('Cc1ccc2c(c1)C=CC1(O2)N(c2ccccc2)C(=S)OC1(C)C (stereo not drawn)', 'MOLT-4', '29.9 µM (inactive)'),
  ('CC(C)CNC(=O)CCc1cccc2c1oc1c(CCN)cccc12', 'MOLT-4', '11.8 µM (inactive)');

Turning now to a further compound:
Lookup: Complete the entry with GI50 for COC(=O)C1=C(OC(=O)/C(=C/c2ccccc2)c2ccc(Cl)cc2Cl)C(C(=O)OC)[C@@]2(O)[C@@H](C(=O)OC)[C@H](C)C[C@@H]1[C@@H]2C(=O)OC (stereo partly drawn)
Found: > 100 µM (inactive)

----------
Each entry below carries its recorded GI50.
# Test system: UACC-257
# assay_overview: NCI tumour cell line growth inhibition, 48 h
Activity calls are given as the source filed them. Rule as the data show it: active = GI50 up to about 1.1 µM and inactive = higher.

# example entries with known answers
INSERT INTO assay_data (compound, readout_value) VALUES
  ('CCCn1c(=O)c2ccccc2[n+]2c(-c3ccc([N+](=O)[O-])cc3)csc12', '27.7 µM (inactive)'),
  ('CCCCCC1C2C(=O)NC(=O)C1C(=O)NC2=O (centres undefined)', '> 100 µM (inactive)'),
  ('Cc1ccccc1OC(C)C(=O)NN1C(=O)CC(=O)N(c2ccccc2)C1=S (centres undefined)', '58.3 µM (inactive)');

Lookup: Complete the entry with GI50 for `Cc1c(-c2ccccc2)c(C#N)c2nnc(C(N)=O)c(N)n12`
Found: > 100 µM (inactive)

Lookup: Complete the entry with GI50 for C[C@@H]1OC2(O)[C@@H]3CCCN3C(=O)N(Cc3ccccc3)N2C1=O (some centres undefined)
Found: > 100 µM (inactive)

Lookup: Complete the entry with GI50 for `CC#Cc1cc2c(cc1O)CC[C@@H]1[C@@H]2CC[C@]2(C)[C@@H](O)CC[C@@H]12`
Found: 1.76 µM (inactive)
